assay: Biodistribution to mesenteric lymph nodes (MLN) and lymph following oral administration in rats; format: in vivo; conditions: male, Sprague Dawley, mesenteric lymph / plasma, intact prodrug, dose equivalent to 10 mg/kg BEX, rat, read-out: concentration of prodrug in lymph compared to plasma
attribute-measured: Kp
// no unit, no text: just the number

Task: What value of measured Kp is listed for C=C(c1ccc(C(=O)OCC)cc1)c1cc2c(cc1C)C(C)(C)CCC2(C)C [prodrug 2] ?
Output: 41

====

system: human chylomicrons (CM); assay: Ex vivo association with human plasma-derived chylomicrons; type: in vitro ADME; details: 1.755 μM, 37 °C, 1 h; in words, relative to parent drug
attribute-measured: association with human chylomicrons (CM)

CC1=C(/C=C/C(C)=C/C=C/C(C)=C/C(=O)OCc2oc(=O)oc2C)C(C)(C)CCC1 [prodrug 27] = improved association
CCOC(=O)/C=C(C)/C=C/C=C(C)/C=C/C1=C(C)CCCC1(C)C [prodrug 26] = improved association

====

assay: Plasma pharmacokinetics following oral administration in rats; format: in vivo, rat; details: male, Sprague Dawley, rat, plasma, po, 10 mg/kg, BEX in plasma; p.o. (lipid-free), dose equivalent to 10 mg/kg BEX
attribute-measured: AUC(0-t) (ng·h/mL)
# output: bare number, implied unit ng·h/mL

Task: # AUC(0-t) lookup, item `C=C(c1ccc(C(=O)O)cc1)c1cc2c(cc1C)C(C)(C)CCC2(C)C`
Output: 4910

====

test: Plasma pharmacokinetics following oral administration in rats; format: in vivo, rat; details: male, Sprague Dawley, rat, plasma, po, 10 mg/kg, BEX in plasma; p.o. (lipid-based), dose equivalent to 10 mg/kg BEX
attribute-measured: AUC(0-inf) (ng·h/mL)
The answer is to be given in ng·h/mL; state only the numeric part.

Task: What does the record list as AUC(0-inf) for `C=C(c1ccc(C(=O)O)cc1)c1cc2c(cc1C)C(C)(C)CCC2(C)C` ?
Output: 6620

====

assay: Plasma pharmacokinetics following oral administration in rats; assay type: in vivo, rat; details: male, Sprague Dawley, rat, plasma, po, 10 mg/kg, BEX in plasma; p.o. (lipid-free), dose equivalent to 10 mg/kg BEX
attribute-measured: half-life (h)
# number only, unit h dropped from output

Task: Recorded half-life for C=C(c1ccc(C(=O)O)cc1)c1cc2c(cc1C)C(C)(C)CCC2(C)C [BEX, bexarotene] , please?
Output: 3
